src = patent US20260250318A1

- Tested on: brains, heart, liver, muscle, and DRG of the NHPs
- test_details: Maturation of TTM-001 and TTM-002 capsids, NGS enrichment in NHP tissues
- Format: in vivo
- condition: NGS fold-enrichment, DRG of NHPs, relative to AAV9 control
# reported Fold Enrichment relative to AAV9, DRG (NHP); entries follow
Numeric only. Scale: fold

*Q* Output measured Fold Enrichment relative to AAV9, DRG (NHP) for this item: KTETHSGSPHSKAQNQQT
*A* 0.000

*Q* Provide Fold Enrichment relative to AAV9, DRG (NHP) value for the following sequence: KTINGSGSPHSKAPGLQT
*A* 0.007

More entries:
*Q* Please give the documented Fold Enrichment relative to AAV9, DRG (NHP) of KTINGSGSPHSKAHNQQR
*A* 0.562

*Q* Retrieve Fold Enrichment relative to AAV9, DRG (NHP) measured for KTINGSGSPHSKAQPAKT and print it.
*A* 0.331
